Entries and their measured inhibition follow.
target: UniProt:P0DTD1; conditions: 20.0 µM
The response must be a number in % with no trailing unit.

Check out these entries, answers already filled in.
C=CC(=O)N(c1ccc(C(C)(C)C)cc1)C(C(=O)NC(C)(C)C)c1cncc(Br)c1 (stereo unspecified); 14.6
CC(NC(=O)c1ccccc1OCC(N)=O)c1cnn(C)c1 (stereo unspecified); -1.52
Cc1ccnc(NC(=O)Cc2ccc3ccccc3c2)c1; 3.57
O=C(Cc1c[nH]c2ncccc12)NCc1cccc(Cl)c1; 7.73

Entry COc1cc(Cl)cc(CC(=O)Nc2cnccc2C)c1 ; inhibition = 24.6

Entry N#Cc1ccc(S(=O)(=O)N2CCN(C(=O)c3cc(=O)[nH]c4ccc(F)cc34)CC2)cc1 ; inhibition = 2.67

Entry Cc1nc[nH]c1CN1CCN(Cc2cccc(Cl)c2)C1=O ; inhibition = -0.267

Entry CCOc1ccccc1OC1CCN(C(=O)c2c(C)c(=O)[nH]c3ccccc23)C1 (stereo unspecified) ; inhibition = 0.342

Entry C=CC(=O)N(c1ccc(C(C)(C)C)cc1)C(C(=O)NC(C)(C)C)c1cccnc1 (stereo unspecified) ; inhibition = 12.7

Entry Cc1nnc(NC(=O)Cc2cccc(Cl)c2F)n1C ; inhibition = -12.7

Entry COc1cccc(CNC(=O)N2CCN(C(=O)N3CCCCC3)CC2)c1 ; inhibition = -3.31
